TARGET SYSTEM: T1, recombinant human IL-6 (human, UniProt P05231 30-212)
T1 construct: Flowed in solution over the captured antibodies
T1 sequence (P05231 30-212 limits assumed): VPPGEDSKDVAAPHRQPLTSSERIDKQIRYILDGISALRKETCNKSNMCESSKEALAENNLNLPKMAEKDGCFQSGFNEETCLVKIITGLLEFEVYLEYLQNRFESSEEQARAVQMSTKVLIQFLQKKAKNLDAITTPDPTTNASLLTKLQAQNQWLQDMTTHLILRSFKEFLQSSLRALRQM
TEST PROTOCOL: SPR (Biacore), supernatant IgG on Protein A, 25 C
Kindly state koff for each of the entries shown.
Numbers only, in s⁻¹.

Solved entries (count: 2):
[[record]]
binder = "anti-IL-6 antibody, heavy chain S56R, light chain WT (antibody, IgG1, V domains shown, Full IgG1 tested; V domains derived as in m2) VH: EVQLVESGGGLVQPGGSLRLSCAASGFTFSPFAMSWVRQAPGKGLEWVAKISPGGRWTYYSDTVTGRFTFSLDTSKSTAYLQMNSLRAEDTAVYYCARQLWGYYALDIWGQGTLVTVSS VL: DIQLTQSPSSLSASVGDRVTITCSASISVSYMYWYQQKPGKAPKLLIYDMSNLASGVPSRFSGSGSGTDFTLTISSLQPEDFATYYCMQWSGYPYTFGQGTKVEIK"
observed = 0.000155

[[record]]
binder = "anti-IL-6 antibody, heavy chain G66D, light chain WT (antibody, IgG1, V domains shown, Full IgG1 tested) VH: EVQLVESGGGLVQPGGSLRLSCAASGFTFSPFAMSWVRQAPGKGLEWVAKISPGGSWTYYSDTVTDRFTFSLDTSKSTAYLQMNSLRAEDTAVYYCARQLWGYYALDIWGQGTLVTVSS VL: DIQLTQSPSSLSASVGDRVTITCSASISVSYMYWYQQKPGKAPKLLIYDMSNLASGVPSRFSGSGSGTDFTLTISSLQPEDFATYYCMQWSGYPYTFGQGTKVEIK"
observed = 0.000117


Field: next binder
Need koff of anti-IL-6 antibody, heavy chain WT, light chain A25T (antibody, IgG1, V domains shown, Full IgG1 tested; V domains derived as in m2) VH: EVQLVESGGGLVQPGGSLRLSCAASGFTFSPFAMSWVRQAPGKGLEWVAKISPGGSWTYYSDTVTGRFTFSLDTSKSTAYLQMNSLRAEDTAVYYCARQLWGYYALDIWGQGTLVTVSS VL: DIQLTQSPSSLSASVGDRVTITCSTSISVSYMYWYQQKPGKAPKLLIYDMSNLASGVPSRFSGSGSGTDFTLTISSLQPEDFATYYCMQWSGYPYTFGQGTKVEIK , thanks. 0.000119

Reference for the values: patent US20240209076A1
